Reference source: patent US20180208605A1

Would you kindly list inhibition at 1 µM for each of these compounds?
- TESTED_ON: recombinant IRAK-4 kinase (Homo sapiens, UniProt Q9NWZ3)
- Construct: purchased Millipore, USA
- Sequence (Q9NWZ3 whole entry): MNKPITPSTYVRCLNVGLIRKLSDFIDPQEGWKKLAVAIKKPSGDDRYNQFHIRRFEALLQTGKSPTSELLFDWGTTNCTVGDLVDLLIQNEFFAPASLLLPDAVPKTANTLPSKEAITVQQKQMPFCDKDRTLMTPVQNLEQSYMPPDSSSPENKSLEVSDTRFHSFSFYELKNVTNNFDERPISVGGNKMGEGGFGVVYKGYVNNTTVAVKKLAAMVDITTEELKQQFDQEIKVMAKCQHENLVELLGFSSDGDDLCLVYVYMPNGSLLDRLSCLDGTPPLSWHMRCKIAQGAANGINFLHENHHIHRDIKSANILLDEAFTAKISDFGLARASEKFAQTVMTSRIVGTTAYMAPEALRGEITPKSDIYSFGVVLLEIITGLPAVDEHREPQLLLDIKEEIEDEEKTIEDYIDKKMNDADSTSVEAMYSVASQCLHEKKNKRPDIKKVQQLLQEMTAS
- PROTOCOL_NOTES: IRAK-4 Biochemical Assay (TR-FRET, percent inhibition)
- EXPERIMENTAL_CONTEXT: read-out: % inhibition of IRAK-4 @ 1 μM, compound at 1 μM; TR-FRET, 20 μM ATP, 100 nM Biotin Histone H3
Counter-ions that a name gives are not always drawn.
# value in %; strip the unit string

Per the record, O=C(Nc1cc2sc(N3CCOCC3)nc2nc1C1CC1)c1cncc(N2CCC(O)C2)n1 (stereo not shown) [Example 50] has inhibition at 1 µM of 95

Consider O=C(Nc1cc2sc(N3CCOCC3)nc2nc1N1CCCCC1)c1cccc(N2CC[C@H](O)C2)n1 [Example 42, hydrochloride] . Its measured inhibition at 1 µM is 98

// inhibition at 1 µM value for Nc1ccc(-c2cccc(C(=O)Nc3cc4oc(N5CCOCC5)nc4nc3N3CC[C@@H](O)C3)n2)cn1 [Example 90, hydrochloride] : 97

get_value(item= COC1CCN(c2cccc(C(=O)Nc3cc4sc(N5CCOCC5)nc4nc3N3CCCCC3)n2)CC1 [Example 31] , readout=inhibition at 1 µM) returns 98
